Source: paper PMC3762189

Molecular target: G-actin (rabbit muscle actin monomers) (rabbit, UniProt P68135 1-377)
Experiment: fluorescence polarisation; competition: anisotropy of 50 nM Rhodamine-VCA with 150 nM G-actin and increasing VCA or VCA mutants; 10 mM Hepes pH 7.0, 50 mM KCl, 1 mM MgCl2, 1 mM EGTA, 1 mM DTT, 0.2 mM ATP, 350 nM Latrunculin B; KD is the mean of at least three fits
Conditions: both partners purified
Measured metric: pKd
Hey, just a heads up that pKd is the negative log base 10 of the concentration in molar.

Kindly note the recorded pKd for N-WASP-VCA (domain or fragment, N-WASP, VCA region (verprolin homology, central, acidic); The text implies a GST tag with a TEV site on the VCA constructs; also called monomeric VCA; WT; source: purified as described previously (Hetrick et al., 2013)) PVSCSGRDALLDQIRQGIQLKSVTDAPESTPPAPAPTSGIVGALMEVMQKRSKAIHSSDEDEDEDDDEDFEDDDEWED , which is 6.25
